Values were extracted from ChEMBL document CHEMBL5550198.

target: Glucocorticoid receptor (Homo sapiens, UniProt P04150); assay: Agonist activity at glucocorticoid receptor (unknown origin) incubated for 24 hrs by cell based microplate analysis
Sequence (P04150 whole entry): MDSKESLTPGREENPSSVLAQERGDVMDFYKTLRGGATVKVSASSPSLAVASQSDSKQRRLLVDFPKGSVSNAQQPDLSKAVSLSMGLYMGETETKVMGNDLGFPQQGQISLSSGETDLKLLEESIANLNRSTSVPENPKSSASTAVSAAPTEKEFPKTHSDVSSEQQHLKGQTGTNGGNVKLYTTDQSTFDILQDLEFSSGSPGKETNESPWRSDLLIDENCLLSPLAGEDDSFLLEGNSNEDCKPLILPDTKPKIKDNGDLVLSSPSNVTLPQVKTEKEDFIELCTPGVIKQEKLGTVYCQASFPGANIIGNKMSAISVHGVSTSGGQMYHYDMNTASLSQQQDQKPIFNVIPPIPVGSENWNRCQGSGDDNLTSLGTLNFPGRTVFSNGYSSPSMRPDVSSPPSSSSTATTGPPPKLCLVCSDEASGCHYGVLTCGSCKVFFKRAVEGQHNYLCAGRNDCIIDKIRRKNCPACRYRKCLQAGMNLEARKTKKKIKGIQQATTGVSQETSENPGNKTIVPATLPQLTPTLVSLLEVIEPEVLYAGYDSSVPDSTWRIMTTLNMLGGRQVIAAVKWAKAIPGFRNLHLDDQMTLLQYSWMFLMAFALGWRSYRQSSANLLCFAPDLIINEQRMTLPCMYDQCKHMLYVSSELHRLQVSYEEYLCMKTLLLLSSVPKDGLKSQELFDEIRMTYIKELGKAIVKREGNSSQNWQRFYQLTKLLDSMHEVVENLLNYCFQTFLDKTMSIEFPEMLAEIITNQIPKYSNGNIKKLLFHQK
pEC50: −log10 of the molar value.
quantity.kind: pEC50

> print(dat)
                                   compound  quantity.kind  reading
1  CCN(C[C@@](O)(CNC(=O)c1cnn(-c2ccc(F)cc2)c1N)C(F)(F)F)C(=O)c1c(Cl)cccc1Cl          pEC50     8.70
2  CCN(C[C@@](O)(CNC(=O)c1cnn(-c2ccc(F)cc2)c1N)C(F)(F)F)C(=O)c1ccccc1          pEC50     7.11
3  CCc1cccc(Cl)c1C(=O)N(CC)C[C@@](O)(CNC(=O)c1cnn(-c2ccc(F)cc2)c1N)C(F)(F)F (stereo in doubt; 14a)          pEC50     8.05
4  CCN(C[C@@](O)(CNC(=O)c1cnn(-c2ccc(F)cc2)c1N)C(F)(F)F)C(=O)c1c(C)cccc1Cl (stereo in doubt; 10b)          pEC50     8.40
5  CCc1cccc(CC)c1C(=O)N(CC)C[C@@](O)(CNC(=O)c1cnn(-c2ccc(F)cc2)c1N)C(F)(F)F          pEC50     6.91

I: CCc1ccccc1C(=O)N(CC)C[C@@](O)(CNC(=O)c1cnn(-c2ccc(F)cc2)c1N)C(F)(F)F
II: CCN(C[C@@](O)(CNC(=O)c1cnn(-c2ccc(F)cc2)c1N)C(F)(F)F)C(=O)c1c(C)cccc1Cl (stereo in doubt; 10a)
III: CCc1cccc(Cl)c1C(=O)N(CC)C[C@@](O)(CNC(=O)c1cnn(-c2ccc(F)cc2)c1N)C(F)(F)F (stereo in doubt; 14b)
IV: CCN(C[C@@](O)(CNC(=O)c1cnn(-c2ccc(F)cc2)c1N)C(F)(F)F)C(=O)c1ccccc1F
Task: Rank ascending by pEC50. Your reply should list the labels following the order given in the request.
Output: IV, I, II, III
(IV: 7.59, I: 8.40, II: 8.70, III: 9.30)

1: CCN(C[C@@](O)(CNC(=O)c1cnn(-c2ccc(F)cc2)c1N)C(F)(F)F)C(=O)c1c(F)cccc1F
2: CCN(C[C@@](O)(CNC(=O)c1cnn(-c2ccc(F)cc2)c1N)C(F)(F)F)C(=O)c1c(F)cccc1Cl
Task: Returns: the argument ( 1 or 2 ) having the larger pEC50. Your answer should be the label of the entry you select.
Output: 2
(2: 8.70, 1: 8.30)
